- test summary: MRTinfinity in Sprague-Dawley rat at 5 mg/kg, po administered via gavage measured up to 24 hrs by LCMS analysis
- Format: ADME, organism-based
- assay setup: in vivo
assay readout: MRT inf (h)
Give bare numbers, in h.

Task: Could you tell me which MRT inf is on file for Cc1cc(-c2ccncc2)cc(C)c1Nc1ccnc(Nc2ccc(C#N)cc2)n1.Cl ?
Result: 2.1

---

- test summary: Tmax in Sprague-Dawley rat at 5 mg/kg, po administered via gavage measured up to 24 hrs by LCMS analysis
- Format: ADME, organism-based
- assay setup: in vivo
assay readout: Tmax (min)
Numbers only, in min.

Br.Cc1cnc(Nc2ccc(C#N)cc2)nc1Nc1c(F)cc(-c2ccncc2)cc1F: 15

Task: # input compound: Cc1cc(-c2ccncc2)cc(C)c1Nc1ccnc(Nc2ccc(C#N)cc2)n1.Cl ; wanted: its Tmax
Result: 60
